Would you mind telling me the reported pKi of each entry?
Molecular target: α2C receptor (Homo sapiens, UniProt P18825)
Construct: host or cells: LM(tk-) cells, line L-α2C
Sequence (P18825 whole entry): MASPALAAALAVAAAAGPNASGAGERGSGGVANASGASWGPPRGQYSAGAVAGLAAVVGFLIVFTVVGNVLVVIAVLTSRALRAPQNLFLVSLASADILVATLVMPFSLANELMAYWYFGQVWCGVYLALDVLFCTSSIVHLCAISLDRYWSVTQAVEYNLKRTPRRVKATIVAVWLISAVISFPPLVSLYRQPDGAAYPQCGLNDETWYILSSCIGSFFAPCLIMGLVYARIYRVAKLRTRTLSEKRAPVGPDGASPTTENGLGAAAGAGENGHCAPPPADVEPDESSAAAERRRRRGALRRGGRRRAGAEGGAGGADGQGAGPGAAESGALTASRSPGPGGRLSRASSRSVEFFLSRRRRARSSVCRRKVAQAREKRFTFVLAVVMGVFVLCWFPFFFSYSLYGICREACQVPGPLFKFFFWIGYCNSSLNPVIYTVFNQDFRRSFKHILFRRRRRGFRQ
Test: Competition binding, [3H]rauwolscine, human α2C receptor
Settings: pKi alpha-2 2c, [3H]rauwolscine, human α2C receptor, LM(tk−) cells
Where a name gives a salt, the structure may show the parent alone.
# pKi = -log10(concentration in molar units)

Prompt: Given the entry CCC1=C(C(N)=O)C(c2ccc(S(C)(=O)=O)cc2)C(C(=O)NCCCN2CCC(c3ccccc3)(c3ccccc3)CC2)=C(CC)N1 (stereo not drawn) , report its measured pKi.
Response: 6.13

Prompt: Given the entry CCC1=C(C(=O)NCCCN2CCC(c3ccccc3)(c3ccccc3)CC2)C(c2ccc([N+](=O)[O-])cc2)C(C(N)=O)=C(COCCN=[N+]=[N-])N1 (stereo not drawn) , report its measured pKi.
Response: 6.59

Prompt: Given the entry CCC1=C(C(N)=O)C(c2ccc(S(C)(=O)=O)cc2)C(C(=O)NCCCN2CCC(c3ccccc3)(c3ccccc3)CC2)=C(C)N1 (stereo not drawn) , report its measured pKi.
Response: 5.65

Prompt: Given the entry CCC1=C(C(=O)NCCCN2CCC(c3ccccc3)(c3ccccc3)CC2)C(c2ccc([N+](=O)[O-])cc2)C(C(=O)OC(C)(C)C)=C(COCCN=[N+]=[N-])N1 (stereo not drawn) , report its measured pKi.
Response: 6.51

Prompt: Given the entry CCC1=C(C(=O)OCCC#N)C(c2ccc([N+](=O)[O-])cc2)C(C(=O)NCCCN2CCC(c3ccccc3)(c3ccccc3)CC2)=C(COCCN=[N+]=[N-])N1 (stereo not drawn) , report its measured pKi.
Response: 6.45

Prompt: Given the entry CCC1=C(C(=O)NCCCN2CCC(c3ccccc3)(c3ccccc3)CC2)C(c2ccc([N+](=O)[O-])cc2)C(C(=O)NC)=C(COCCN=[N+]=[N-])N1 (stereo not drawn) , report its measured pKi.
Response: 6.68

Prompt: Given the entry CCC1=C(C(=O)NCCCN2CCC(c3ccccc3)(c3ccccc3)CC2)C(c2cccc(OC)c2)C(C(N)=O)=C(C)N1 (stereo not drawn) , report its measured pKi.
Response: 6.50

Prompt: Given the entry CCC1=C(C(N)=O)C(c2ccc([N+](=O)[O-])cc2)C(C(=O)NCCCN2CCC(C#N)(c3ccccc3)CC2)=C(CC)N1 (single isomer, unassigned; (-)) [(−)-102] , report its measured pKi.
Response: 5.98

Prompt: Given the entry "CCC1=C(C(=O)NCCCN2CCC(c3ccccc3)(c3ccccc3)CC2)C(c2cccc(OC)c2)C(C(=O)NCCCN2CCC(c3ccccc3)(c3ccccc3)CC2)=C(CC)N1" , report its measured pKi.
Response: 6.57

Prompt: Given the entry CCNC(=O)C1=C(COCCN=[N+]=[N-])NC(CC)=C(C(=O)NCCCN2CCC(c3ccccc3)(c3ccccc3)CC2)C1c1ccc([N+](=O)[O-])cc1 (stereo not drawn) , report its measured pKi.
Response: 6.60

Prompt: Given the entry CCC1=C(C(N)=O)C(c2ccc([N+](=O)[O-])cc2)C(C(=O)NCCCN2CCC(C#N)(c3ccccc3)CC2)=C(CC)N1 (racemic) [(±)-102, hydrochloride hydrate] , report its measured pKi.
Response: 5.76

Prompt: Given the entry CCC1=C(C(N)=O)C(c2ccc([N+](=O)[O-])cc2)C(C(=O)NCCCN2CCC(C#N)(c3ccccc3)CC2)=C(CC)N1 (single isomer, unassigned; (+)) [(+)-102] , report its measured pKi.
Response: 5.48

* * *

Target: α1C Human Adrenergic Receptor (Homo sapiens, UniProt P35348)
Construct: The entire coding region of α1C (1401 bp); expressed in transfected cells
Sequence (P35348 whole entry): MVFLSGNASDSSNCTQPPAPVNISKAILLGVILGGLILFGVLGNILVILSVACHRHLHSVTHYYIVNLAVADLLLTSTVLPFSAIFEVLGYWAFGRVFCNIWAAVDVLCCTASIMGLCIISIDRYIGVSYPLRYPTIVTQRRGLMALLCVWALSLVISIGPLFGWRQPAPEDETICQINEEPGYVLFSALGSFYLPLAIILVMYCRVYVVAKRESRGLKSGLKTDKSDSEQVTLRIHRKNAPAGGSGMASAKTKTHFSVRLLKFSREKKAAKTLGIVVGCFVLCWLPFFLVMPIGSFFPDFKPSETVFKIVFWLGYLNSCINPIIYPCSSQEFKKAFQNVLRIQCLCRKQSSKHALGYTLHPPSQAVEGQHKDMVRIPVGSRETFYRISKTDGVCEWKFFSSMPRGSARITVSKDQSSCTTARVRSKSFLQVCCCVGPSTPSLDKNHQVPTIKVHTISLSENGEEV
Assay: Radioligand binding, [3H]prazosin, cloned human α1C adrenergic receptor
Details: cloned human α1C receptor, LM(tk-) cell membranes, read-out: PKi alpha-1 1c (converted)
Hi! Just check whether Ki is below 4 nM. Below gives Satisfied, equal or above gives Not satisfied.

Prompt: Consider COC(=O)C1(c2ccccc2)CCN(CCCNC(=O)C2=C(COCCN)NC(C)=C(C(C)=O)C2c2ccc(F)cc2)CC1 (centres unmarked) . Does its Ki lie strictly below 4 nM?
Response: Not satisfied

Prompt: Consider CCOC(=O)C1(c2ccccc2)CCN(CCCNC(=O)C2=C(COC)NC(CC)=C(C(=O)O)C2c2ccc([N+](=O)[O-])cc2)CC1 (centres unmarked) . Does its Ki lie strictly below 4 nM?
Response: Not satisfied

Prompt: Consider CCOC(=O)C1(c2ccccc2)CCN(CCCNC(=O)C2=C(COCCN)NC(C)=C(C(C)=O)C2c2ccc3c(c2)OCO3)CC1 (centres unmarked) . Does its Ki lie strictly below 4 nM?
Response: Satisfied

Prompt: Consider COC(=O)C1=C(C)NC(C)=C(C(=O)NCCCN2CCC(c3ccccc3)CC2)C1c1ccc2c(c1)OCO2 (centres unmarked) . Does its Ki lie strictly below 4 nM?
Response: Satisfied

Prompt: Consider COC(=O)C1=C(C)NC(C)=C(C(=O)NCCCN2CCC(c3ccccc3)(c3ccccc3)CC2)C1c1cccc([N+](=O)[O-])c1 (centres unmarked) . Does its Ki lie strictly below 4 nM?
Response: Satisfied

Prompt: Consider CCC1=C(C(=O)NN2CCOCC2)C(c2ccc([N+](=O)[O-])cc2)C(C(=O)NCCCN2CCC(c3ccccc3)(c3ccccc3)CC2)=C(COC)N1 (centres unmarked) . Does its Ki lie strictly below 4 nM?
Response: Not satisfied

Prompt: Consider COC(=O)C1(c2ccccc2)CCN(CCCNC(=O)C2=C(COCCCN)NC(C)=C(C(C)=O)C2c2ccc([N+](=O)[O-])cc2)CC1 (centres unmarked) . Does its Ki lie strictly below 4 nM?
Response: Not satisfied

Prompt: Consider CCOC(=O)C1(c2ccccc2)CCN(CCCNC(=O)C2=C(COCC(F)(F)F)NC(C)=C(C(N)=O)C2c2ccc([N+](=O)[O-])cc2)CC1 (centres unmarked) . Does its Ki lie strictly below 4 nM?
Response: Not satisfied

* * *

Would you mind telling me the reported melting point of each entry?

Prompt: Given the entry COC(=O)C1=C(C)NC(C)=C(C(=O)NCCCN2CCC(c3ccccc3)(c3ccccc3)CC2)C1C1CCCCC1 (stereo not drawn) , report its measured melting point.
Response: 171 to 174 °C

Prompt: Given the entry CCC1=C(C(=O)O)C(c2ccc([N+](=O)[O-])cc2)C(C(=O)NCCCN2CCC(C(=O)OC)(c3ccccc3)CC2)=C(COCCN=[N+]=[N-])N1 (stereo not drawn) , report its measured melting point.
Response: 110 to 120 °C

Prompt: Given the entry CCC1=C(C(=O)NC)C(c2ccc([N+](=O)[O-])cc2)C(C(=O)NCCCN2CCC(C(=O)OC)(c3ccccc3)CC2)=C(CCCCOC)N1 (stereo not drawn) , report its measured melting point.
Response: 71 to 74 °C

Prompt: Given the entry CCC1=C(C(=O)NCCOC)C(c2ccc([N+](=O)[O-])cc2)C(C(=O)NCCCN2CCC(c3ccccc3)(c3ccccc3)CC2)=C(COC)N1 (stereo not drawn) , report its measured melting point.
Response: 70 °C (dec.)

Prompt: Given the entry CCC1=C(C(=O)NC)C(c2ccc([N+](=O)[O-])cc2)C(C(=O)NCCCN2CCC(C(=O)OC)(c3ccccc3)CC2)=C(COCCN=[N+]=[N-])N1 (stereo not drawn) , report its measured melting point.
Response: 73 to 83 °C

Prompt: Given the entry COC(=O)C1=C(C)NC(C)=C(C(=O)NCCCN2CCC(c3ccccc3)(c3ccccc3)CC2)C1c1ccc(OC)cc1 (stereo not drawn) , report its measured melting point.
Response: 212 to 213 °C

* * *

Target: α1C Human Adrenergic Receptor (Homo sapiens)
Construct: The entire coding region of α1C (1401 bp); expressed in transfected cells
Assay: Radioligand binding, [3H]prazosin, cloned human α1C adrenergic receptor
Conditions: pKi alpha-1 1c, cloned human α1C receptor, LM(tk−) cell membranes
Readout type: log10 Ki (log10 of the value in nM)
Friendly reminder: values = log10 of Ki, unit nM.

Prompt: Given the entry COc1cccc(C2C(C(N)=O)=C(C)NC(C)=C2C(=O)NCCCN2CCC(c3ccccc3)(c3ccccc3)CC2)c1 (stereo not drawn) [Example 117] , report its measured log10 Ki.
Response: 1.44

Prompt: Given the entry CCC1=C(C(=O)NCCCN2CCC(c3ccccc3)(c3ccccc3)CC2)C(c2ccc([N+](=O)[O-])cc2)C(C(=O)NC(C)C)=C(CC)N1 (stereo not drawn) [Example 132] , report its measured log10 Ki.
Response: 1.76

Prompt: Given the entry CCC1=C(C(N)=O)C(c2ccc(S(C)(=O)=O)cc2)C(C(=O)NCCCN2CCC(c3ccccc3)(c3ccccc3)CC2)=C(C)N1 (stereo not drawn) [Example 118] , report its measured log10 Ki.
Response: 0.98

Prompt: Given the entry CCC1=C(C(=O)NC)C(c2ccc([N+](=O)[O-])cc2)C(C(=O)NCCCN2CCC(c3ccccc3)(c3ccccc3)CC2)=C(CC)N1 (stereo not drawn) [Example 128] , report its measured log10 Ki.
Response: 0.53

Prompt: Given the entry CCC1=C(C(=O)NCCCN2CCC(c3ccccc3)(c3ccccc3)CC2)C(c2cccc(OC)c2)C(C(N)=O)=C(C)N1 (stereo not drawn) [Example 113] , report its measured log10 Ki.
Response: 1.25

Prompt: Given the entry CCC1=C(C(=O)NCCCN2CCC(c3ccccc3)(c3ccccc3)CC2)C(c2ccc([N+](=O)[O-])cc2)C(C(=O)OC(C)(C)C)=C(COCCN=[N+]=[N-])N1 (stereo not drawn) [Example 139] , report its measured log10 Ki.
Response: 1.37
